- TARGET_OR_TEST_SYSTEM: glucocorticoid receptor (Homo sapiens)
- Construct: endogenous in cells
- Sequence (P04150 1-777): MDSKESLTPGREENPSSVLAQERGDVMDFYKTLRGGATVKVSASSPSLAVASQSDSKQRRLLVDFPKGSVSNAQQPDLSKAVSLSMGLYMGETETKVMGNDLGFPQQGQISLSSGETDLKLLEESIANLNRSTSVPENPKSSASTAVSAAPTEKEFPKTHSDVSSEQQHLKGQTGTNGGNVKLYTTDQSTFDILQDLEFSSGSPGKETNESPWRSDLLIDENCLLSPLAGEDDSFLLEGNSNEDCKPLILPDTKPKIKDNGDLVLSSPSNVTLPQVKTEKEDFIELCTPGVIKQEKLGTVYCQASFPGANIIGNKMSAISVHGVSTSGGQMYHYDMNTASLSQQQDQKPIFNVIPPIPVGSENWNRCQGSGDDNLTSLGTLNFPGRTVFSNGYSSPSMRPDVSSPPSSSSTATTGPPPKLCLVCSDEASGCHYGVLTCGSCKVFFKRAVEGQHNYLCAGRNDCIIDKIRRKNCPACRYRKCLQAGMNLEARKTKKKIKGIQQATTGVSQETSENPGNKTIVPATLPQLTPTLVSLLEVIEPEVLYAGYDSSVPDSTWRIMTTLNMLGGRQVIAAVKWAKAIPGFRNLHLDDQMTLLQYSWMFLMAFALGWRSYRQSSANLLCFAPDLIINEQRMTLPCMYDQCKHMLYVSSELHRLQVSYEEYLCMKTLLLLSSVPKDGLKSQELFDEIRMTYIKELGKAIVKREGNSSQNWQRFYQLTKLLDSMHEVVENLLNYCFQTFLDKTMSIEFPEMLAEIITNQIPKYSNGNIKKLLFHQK
- MEASUREMENT_DESCRIPTION: Ligand binding assay (GR BIND)
- Experimental: • Materials: • Binding Buffer: TEGM (10 mM Tris-HCl, 1 mM EDTA, 10% glycerol, 1 mM beta-mecaptoethanol, 10 mM Sodium Molybdate, pH 7.2) • 50% HAP Slurry: Calbiochem Hydroxylapatite, Fast Flow, in 10 mM Tris, pH 8.0 and 1 mM EDTA. • Wash Buffer: 40 mM Tris, pH7.5, 100 mM KCl, 1 mM EDTA and 1 mM EGTA. […] 25 μL of ^3H-DEX (6 nM) trace and 25 μL compound solution are first mixed together, followed by addition of 50 μL receptor solution. […] IC54s are calculated using DEX as a reference.
ASSAY_METRIC: Ki

Reference set (6 entries):
C[C@]12Cc3cnn(-c4ccc(F)cc4)c3C=C1CC[C@@H]2CN(CCCc1ccccc1)S(=O)(=O)CC(F)(F)F ... 1 nM
C[C@]12Cc3cnn(-c4ccc(F)cc4)c3C=C1CC[C@@H]2CN(CCc1ccccc1F)S(=O)(=O)Cc1ccccc1C(F)(F)F ... 2.3 nM
COC(=O)c1ccccc1S(=O)(=O)N(CCO)C[C@H]1CCC2=Cc3c(cnn3-c3ccc(F)cc3)C[C@@]21C ... 3.1 nM
C[C@]12Cc3cnn(-c4ccc(F)cc4)c3C=C1CC[C@@H]2CN(CC(O)C(F)(F)F)S(=O)(=O)Cc1ccccc1C(=O)O (some centres unmarked) ... 3.2 nM
C[C@]12Cc3cnn(-c4ccc(F)cc4)c3C=C1CC[C@@H]2CN(CC(O)c1ccncc1)S(=O)(=O)CC(F)(F)F (some centres unmarked) ... 0.9 nM
C[C@]12Cc3cnn(-c4ccc(F)cc4)c3C=C1CC[C@@H]2CN(CCO)S(=O)(=O)c1cc(F)cc(F)c1 ... 1.4 nM

Hi, could you look up Ki for each item in my list?
1. COCCN(C[C@H]1CCC2=Cc3c(cnn3-c3ccc(F)cc3)C[C@@]21C)S(=O)(=O)c1c(C)noc1C
2. C[C@]12Cc3cnn(-c4ccc(F)cc4)c3C=C1CC[C@@H]2CN(CCc1ccccc1CO)S(=O)(=O)CC(F)(F)F

Result:
1.3 nM
1.7 nM

// data source = patent US8299048B2
